Literature compilation of IC50 measurements on Cocaine esterase (Homo sapiens, UniProt O00748).
Molecular target: Cocaine esterase (Homo sapiens, UniProt O00748)
Sequence (O00748 whole entry): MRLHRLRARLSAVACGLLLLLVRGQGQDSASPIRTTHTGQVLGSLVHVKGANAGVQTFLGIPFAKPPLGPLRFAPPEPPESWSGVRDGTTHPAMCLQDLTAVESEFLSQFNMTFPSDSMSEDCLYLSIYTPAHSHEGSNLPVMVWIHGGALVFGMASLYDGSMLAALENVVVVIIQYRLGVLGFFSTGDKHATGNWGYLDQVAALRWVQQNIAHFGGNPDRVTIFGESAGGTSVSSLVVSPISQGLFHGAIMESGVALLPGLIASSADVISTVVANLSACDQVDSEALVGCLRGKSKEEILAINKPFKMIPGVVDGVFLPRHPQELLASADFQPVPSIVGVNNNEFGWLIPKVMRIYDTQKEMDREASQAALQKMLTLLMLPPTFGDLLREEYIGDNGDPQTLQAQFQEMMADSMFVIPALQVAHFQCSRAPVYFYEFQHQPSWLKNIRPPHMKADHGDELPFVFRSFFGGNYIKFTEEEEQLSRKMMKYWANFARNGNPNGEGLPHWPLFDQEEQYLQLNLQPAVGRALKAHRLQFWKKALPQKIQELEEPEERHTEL
measure: IC50 (µM)

Example results:
compound=COc1cc(/C=C2\Cc3ccc(N)cc3C2=O)ccc1O testedon="Cocaine esterase (Homo sapiens, UniProt O00748)" unittext=µM observed=1.48
compound=O=C1/C(=C/c2ccc(O)cc2)Cc2ccc(O)cc21 testedon="Cocaine esterase (Homo sapiens, UniProt O00748)" unittext=µM observed=5.94
compound="CCC1C(=O)N(c2ccccc2)N=C1c1ccccc1 (configuration not stated)" testedon="Cocaine esterase (Homo sapiens, UniProt O00748)" unittext=µM observed=9.04
compound=CC1(C)[C@@H](O)CC[C@]2(C)[C@H]3C(=O)C=C4[C@@H]5C[C@@](C)(C(N)=O)CC[C@]5(C)CC[C@@]4(C)[C@]3(C)CC[C@@H]12 testedon="Cocaine esterase (Homo sapiens, UniProt O00748)" unittext=µM observed=14.2
compound=CCCCCCCC[C@@H]1OC(=O)c2c(O)cccc21 testedon="Cocaine esterase (Homo sapiens, UniProt O00748)" unittext=µM observed=23.3
compound=COc1cc(/C=C2\Cc3ccc(OC(C)C)cc3C2=O)ccc1O testedon="Cocaine esterase (Homo sapiens, UniProt O00748)" unittext=µM observed=2.86

P: CC(=O)O[C@H]1CC[C@]2(C)[C@H]3C(=O)C=C4[C@@H]5C[C@@](C)(C(N)=O)CC[C@]5(C)CC[C@@]4(C)[C@]3(C)CC[C@H]2C1(C)C
Q: C[C@H](C[C@H](O)[C@@H](O)C(C)(C)O)C1=C2CC[C@H]3[C@@]4(C)CCC(=O)C(C)(C)[C@@H]4CC[C@]3(C)[C@@]2(C)CC1
Hi, I'm comparing two records. Which one has the lower IC50, P or Q ? When you have decided, please share the label of that item.
Q
(Q: 4.63 µM, P: 7.36 µM)
